- Test system: MDA-MB-231 breast
- ASSAY_NAME: NCI-60 one-dose screen, 48 h
- ASSAY_SETUP: 10 µM unless noted
About 83,000 compounds went through this panel and 20% of them were active in at least one assay; those are over-represented in the sample as a whole. The source made the active and inactive calls. The calls were made as follows: active = growth percent below 10; inactive = the rest.
Possible outcomes: active, inactive

                                    compound  assigned_class
 0                 CCCNS(=O)(=O)c1ccc(Cl)cc1        inactive
 1  CN(C)CCOC(=O)Nc1ccc(Cc2ccc(NC(=O)OCCN(C)C)cc2)cc1        inactive
 2            NC(CCl)=NCC12CC3CC(CC(C3)C1)C2          active
 3          C=CCC(O)C=C (stereo unspecified)        inactive
 4  Cc1cc(Nc2ccc3c(c2)OCO3)c2cc3c(cc2n1)OCO3        inactive
 5          CCOC(=O)/C(C)=C\c1ccc(OC)c(OC)c1        inactive
 6                        Cc1ccc2nc(N)nnc2c1        inactive
 7                 Clc1ccc(/C=C/c2ccccn2)cc1        inactive
 8                   Nc1ncc([N+](=O)[O-])cn1        inactive
 9                     CC(=O)Nc1ccc(O)c(C)c1        inactive
10  O=S(Cc1ccccc1)/C(=C/NC(=S)Nc1cc(Cl)ccc1Cl)c1ccccc1 (stereo unspecified)        inactive
11  COC1OC(COC(C)=O)C(OC(C)=O)C(OC(C)=O)C1OC(C)=O (stereo unspecified)        inactive
12  CC(=O)OCC1CCC(COC(C)=O)CC1 (stereo unspecified)        inactive
13  CC(=O)NNC(=S)N/C=C/c1c(C)ccc([N+](=O)[O-])c1[N+](=O)[O-]        inactive
14                      Cc1cc(CO)c(O)c(CO)c1        inactive
15          NS(=O)(=O)c1cc(=O)[nH]c(=O)[nH]1        inactive
16                O=C(O)c1ccc(OCc2ccccc2)cc1        inactive
17      O=C1NCC2CCCC1C2 (stereo unspecified)        inactive
18  CC(=O)Nc1ccc(C(=O)c2ccc(S(=O)(=O)Nc3ccccc3)cc2)cc1        inactive
19        CCOC(=O)/C(C#N)=C\c1c[nH]c2ccccc12        inactive
20                  CCOC(=O)c1ccc(NC(C)=O)o1        inactive
21                     Oc1cccc(CNC2CCCCC2)c1        inactive
22           C[n+]1cc2cc3c(cc2c2ccccc21)OCO3        inactive
23                   COc1ccc(Br)c2c1C(=O)CC2        inactive
24                  Oc1ccc2ccccc2c1CN1CCOCC1        inactive
25  Cc1ccccc1NC(=O)Oc1ccc(Cl)cc1C(=O)c1ccccc1        inactive
26            Nc1ncnc(Nc2ccc(C(F)(F)F)cc2)n1        inactive
27  C=CCC(OC(C)=O)c1ccc(C(C)C)cc1 (stereo unspecified)        inactive
28  Cc1ccc(S(=O)(=O)NC(=O)NCCSSCCNC(=O)NS(=O)(=O)c2ccc(C)cc2)cc1        inactive
29  Cc1cccnc1NC1OC(=O)c2ccccc21 (stereo unspecified)        inactive
30                        CC(=O)c1cc(O)ccc1O        inactive
31  Cc1ccc(N2C(=O)c3cccc4c(N)c(S(=O)(=O)O)cc(c34)C2=O)cc1        inactive
32                  CC(=O)CSc1ncnc2nc[nH]c12        inactive
33                                  ON1CCCC1        inactive
34           O=S(=O)(O)c1ccc(O)c(C2CCCCC2)c1        inactive
35                CCC(=O)C1C(=O)c2ccccc2C1=O        inactive
36  CN(C(=S)S(=O)(=O)C12CC3CC(CC(C3)C1)C2)c1ccccc1        inactive
37  CC(=O)Nc1ncc(S(=O)(=O)c2ccc([N+](=O)[O-])cc2)s1        inactive
38  FC(F)(F)c1cc(NC2=NCCN=C(Nc3cc(C(F)(F)F)cc(C(F)(F)F)c3)SS2)cc(C(F)(F)F)c1        inactive
39  O=C(O)C1CCCN1C(=O)OCc1ccccc1 (stereo unspecified)        inactive
40              CCC(=O)Oc1c(C)cc(O)c2ccccc12        inactive
41   O=C1C=Cc2ccccc2/C1=C/c1[nH]c(=O)[nH]c1O        inactive
42                   C=CCc1cc(OC)c(O)c(OC)c1        inactive
43                   Cc1ccc2[nH]c3ccccc3c2c1        inactive
44              O=C(OCc1ccccc1)n1nnc2ccccc21        inactive
45  CC12CCC3c4ccc(O)cc4CCC3C1CCC2=O (stereo unspecified)        inactive
46  CCOC(=O)N[C@H]1CCc2cc(OC)c(OC)c(OC)c2-c2ccc(SC)c(=O)cc21          active
47        O=c1[nH]c(=O)c2cc(Cl)cc(Cl)c2[nH]1        inactive
48  CC1CC2C3CCC4=CC(=O)CCC4(C)C3CCC2(C)C1(O)C(=O)CO (stereo unspecified)        inactive
49  CC(=O)O[C@H]1CC[C@]2(C)C3=C(C(=O)C[C@H]2C1(C)C)[C@]1(C)CC[C@H]([C@H](C)CCC(=O)O)[C@@]1(C)CC3=O        inactive
50  O=[N+]([O-])c1c(O)c(CNCCCO)cc(CNCCCO)c1O        inactive

====

Here, each record is paired with measured growth data.
- System: OVCAR-8 ovarian
- ASSAY_NAME: NCI-60 one-dose screen, 48 h (100 = growth as untreated, 0 = no growth, -100 = all killed)
- ASSAY_SETUP: 10 µM unless noted
Compounds without any hit were thinned out: in the full panel of roughly 83,000, 20% have a hit.
MEASURE: growth (%)

>>> df
                                    compound  measure  output_unit  readout_value
 0  CCCCCCCCCCCCCCCCCC(=O)NCCNC(=O)CCCCCCCCCCCCCCCCC   growth            %           98.2
 1                          NNC(=O)c1ccccc1N   growth            %            107
 2                             Nc1ccc(F)cc1F   growth            %            116
 3                O=C(O)c1ccc(OCc2ccccc2)cc1   growth            %           97.9
 4                        NNc1ncnc2nc[nH]c12   growth            %           16.4
 5           Cc1[nH]nc(C(N)=O)c1[N+](=O)[O-]   growth            %            108
 6  Oc1ccc(CCC2CCNc3ccccc32)cc1 (configuration not stated)   growth            %           73.4
 7           CCCCNc1ccc(-c2ccc(NCCCC)cc2)cc1   growth            %           82.1
 8     O=C(NCc1ccccc1)c1cccc([N+](=O)[O-])c1   growth            %           97.2
 9  CC(=O)NNC(=S)/N=C\C(C(=O)c1ccccc1)=C(/O)c1ccccc1   growth            %            102
10                        O=S(=O)(O)c1cccnc1   growth            %            104
11                  CCCCn1cnc2c(=O)[nH]cnc21   growth            %            115
12  CSCCC(NC(=O)C(Cl)Cl)C(=O)O (configuration not stated)   growth            %           96.7
13  COc1cc(OC)c(NC(=O)C(Sc2nc(C)cc(C)c2C#N)c2ccccc2)cc1Cl (configuration not stated)   growth            %           88.6
14                           COc1nc2ccccc2s1   growth            %           96.3
15  O=C(c1cccc(C(=O)c2ccc3c4c(cccc24)C(=O)N(c2ccccc2)C3=O)c1)c1ccc2c3c(cccc13)C(=O)N(c1ccccc1)C2=O   growth            %           88.8
16                               S=CN1CCCCC1   growth            %           97.5
17  O=S(Cc1ccccc1)/C(=C/NC(=S)Nc1ccccc1)c1ccccc1 (configuration not stated)   growth            %            107
18         Cc1cc(Cl)cc(Cc2cc(Cl)cc(C)c2O)c1O   growth            %           48.2
19              O=C(NC(=S)N1CC=CCC1)c1ccccc1   growth            %            100
20                               CCOC(=O)CNC   growth            %           91.3
21                 CCOc1ccc(C(=O)NCC(C)C)cc1   growth            %            105
22                                OCc1cccnc1   growth            %           95.2
23                     CC(C)(CC(=O)O)CC(=O)O   growth            %            121
24  COC1CC(OC(=O)c2ccc([N+](=O)[O-])cc2)C(COC(=O)c2ccc([N+](=O)[O-])cc2)O1 (configuration not stated)   growth            %           91.2
25           CCNC(=O)OCCc1c2ccccc2nc2ccccc12   growth            %             98
26                      C=C(OC(C)=O)c1ccccc1   growth            %            101
